- Test system: Fibroblast
- test_details: Multiplex assay against human fibroblast
- Type: toxicity, cell-based
- details: 12 h, 10 µM, compound concentration 10 uM, replicate 2
measure: Population Pyknosed Nuclei (%)

{"columns": ["compound", "subject_of_test", "measure", "value_reported"],
 "data": [
  ["CN1CCC[C@@H]1CCO[C@](C)(c1ccccc1)c1ccc(Cl)cc1.O=C(O)/C=C/C(=O)O [CLEMASTINE FUMARATE]", "Fibroblast", "Population Pyknosed Nuclei (%)", 38],
  ["OC1(c2ccc(Cl)cc2)CCN(Cc2c[nH]c3ccccc23)CC1", "Fibroblast", "Population Pyknosed Nuclei (%)", 47],
  ["CN(C)C(=O)/C(C#N)=C/c1ccc(-c2nc3cnc4[nH]ccc4c3n2C2CCCCC2)o1", "Fibroblast", "Population Pyknosed Nuclei (%)", 17],
  ["Cc1csc2c(N[C@@H](C)CN3CCN(S(=O)(=O)c4ccc(Cl)c(Cl)c4)CC3)ncnc12", "Fibroblast", "Population Pyknosed Nuclei (%)", 19],
  ["CN1CCN(c2ccc(OC(F)(F)F)c(Nc3ncc4c(n3)-c3c(c(C(N)=O)nn3CCO)CC4)c2)CC1", "Fibroblast", "Population Pyknosed Nuclei (%)", 12]
]}

---

- System: Fibroblast
- test_details: Multiplex assay against human fibroblast
- Type: toxicity, cell-based
- details: 12 h, 1 µM, compound concentration 1 uM, replicate 2
Parameter class (string): assigned from measured Total Cell Count. Ranges: low band (below 70), middle band (70 to below 90), high band (90 or more)

{"columns": ["compound", "group"],
 "data": [
  ["CN1CCC[C@@H]1CCO[C@](C)(c1ccccc1)c1ccc(Cl)cc1.O=C(O)/C=C/C(=O)O [CLEMASTINE FUMARATE]", "middle band"],
  ["C[C@@]1(C(=O)Nc2ccc(F)nc2)CCCN1c1nc(Nc2cc(C3CC3)n[nH]2)c2cccn2n1", "low band"],
  ["OC1(c2ccc(Cl)cc2)CCN(Cc2c[nH]c3ccccc23)CC1", "middle band"],
  ["NC(=O)Nc1cc(-c2cccc(F)c2)sc1C(=O)N[C@H]1CCCNC1", "middle band"],
  ["CCN(CC)CCCCNc1ncc2cc(-c3cc(OC)cc(OC)c3)c(NC(=O)NC(C)(C)C)nc2n1", "high band"],
  ["C=CC(=O)Nc1cc2c(Nc3ccc(F)c(Cl)c3)ncnc2cc1OCCCN1CCOCC1.Cl.Cl [CANERTINIB DIHYDROCHLORIDE]", "high band"],
  ["CC(C)(O)CNc1ncc(-c2ccnc(Nc3ccnc(Cl)c3)n2)c(CC2CC2)n1", "high band"],
  ["CC[C@H](C)C(=O)O[C@H]1C[C@@H](C)C=C2C=C[C@H](C)[C@H](CC[C@@H]3C[C@@H](O)CC(=O)O3)[C@H]21", "middle band"],
  ["COc1ncc(-c2ccc3nccc(-c4ccnnc4)c3c2)cc1NS(=O)(=O)c1ccc(F)cc1F", "low band"],
  ["CN(C)CC#Cc1ccc(OCCCc2sc(N3CCc4cccc(C(=O)Nc5nc6ccccc6s5)c4C3)nc2C(=O)O)c(F)c1", "middle band"],
  ["Cl.N#Cc1ccc2[nH]cc(CCCCN3CCN(c4ccc5oc(C(N)=O)cc5c4)CC3)c2c1 [VILAZODONE HYDROCHLORIDE]", "low band"],
  ["CN1CCN(c2ccc(OC(F)(F)F)c(Nc3ncc4c(n3)-c3c(c(C(N)=O)nn3CCO)CC4)c2)CC1", "low band"],
  ["c1cn2cc(-c3ccc4cn[nH]c4c3)nc(Nc3ccc(N4CCOCC4)cc3)c2n1", "low band"],
  ["COc1cc(-n2cnc3cc(-c4ccc(Cl)cc4)sc3c2=O)ccc1OCCN1CCCC1", "middle band"]
]}

Where these numbers come from: ChEMBL document CHEMBL4689842
